// data source = PubChem BioAssay

assay: stimulators of nuclear beta-catenin in C2C12, primary screen, imaging, WNT3A-conditioned medium, mouse C2C12, NPC library (AID 1117326); details: stimulation, at 2 µM, stronger effect = higher value
measured_quantity: nuclear beta-catenin stimulation (%)
Only the number, expressed in %, is required.

Consider the reported nuclear beta-catenin stimulation for these molecules:
C[C@@H]1O[C@@H](O[C@H]2C[C@@H](O)[C@]3(CO)[C@H]4[C@H](O)C[C@]5(C)[C@@H](C6=CC(=O)OC6)CC[C@]5(O)[C@@H]4CC[C@]3(O)C2)[C@H](O)[C@H](O)[C@H]1O = -1.2
O=C(N/N=C/c1ccc([N+](=O)[O-])o1)c1cc([N+](=O)[O-])cc([N+](=O)[O-])c1O = 1.8
NC1=NC(=O)C(c2ccccc2)O1 (stereo not given) = 0.5
C=C1CC[C@@]2(O)[C@H]3Cc4ccc(O)c5c4[C@@]2(CCN3CC2CC2)[C@H]1O5 = 2.1

Value lookup for nuclear beta-catenin stimulation; key = CC(=O)C1CCOC1=O (stereo not given)
1.2

Any idea what nuclear beta-catenin stimulation was measured for Cc1ccc(N=CN(C)C=Nc2ccc(C)cc2C)c(C)c1 ?
2.7

What measured nuclear beta-catenin stimulation goes with Cc1ncc(CNC(=O)N(CCCl)N=O)c(N)n1 ?
-0.9

What does the data say about its nuclear beta-catenin stimulation? Entry: COc1c2c(cc3c1OCO3)CCN(C)C2
1.3

Could you tell me which nuclear beta-catenin stimulation is on file for Fc1cc(Br)ccc1CBr ?
13

Request the reported nuclear beta-catenin stimulation associated with CN(C)C(=O)Oc1cc(OC(=O)N(C)C)cc(C(O)CNC(C)(C)C)c1 (stereo not given)
4.2

====

test: antimalarial activity against Dd2 strain (AID 2302);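 note: 0% = DMSO untreated growth and 100% = chloroquine plus artemisinin killed control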; conditions: P. falciparum Dd2 in RBCs, LDH growth readout, 72 h; at 2 µM
Calls of active or inactive are those of the source.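 How the source made its calls: active means growth inhibition above 50% at the single 2 µM test dose, taken to imply half-maximal potency below 2 µM; inactive means the rest.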
Please answer using one outcome listed in label 1 (active), label 0 (inactive)

These solved cases illustrate the format of a correct answer.
CCCCC1(NC(=O)[C@H](CC(C)C)Nc2ccc(C#N)c3ccccc23)CCCCC1 = label 0
CC(Cc1ccc(Oc2ccc(Cl)cc2)cc1)NCC(O)c1cccc(Cl)c1 (centres undefined) = label 1
O=C(c1cccs1)N(Cc1cccc(-c2ccc(CNC3CCCC3)cc2)c1)C1CCN(Cc2ccccc2)CC1 = label 1
CC(=O)C1(c2ccccc2)CCN(CCC(NC(=O)c2cc(C(F)(F)F)cc(C(F)(F)F)c2)c2ccc(Cl)c(Cl)c2)CC1 (centres undefined) = label 1
Cc1cc(O)cc2c(C3CCN(CC4CCC(NC(=O)/C=C/c5ccccc5Cl)CC4)CC3)c[nH]c12 (centres undefined) = label 1

So what was the verdict on COC(=O)CN(C(=O)/C=C/c1ccc(Cl)c(Cl)c1)C1CCC(CN2CCC(c3c[nH]c4ccccc34)CC2)CC1 (centres undefined) in this test?
label 1

// return assay outcome for COC(=O)c1ccc(CC(C)NCC(O)c2cccc(I)c2)cc1 (centres undefined)
label 1

What is the recorded call for this compound in the test? Cc1csc(-c2ccc3[nH]cc(C4=CCN(C)CC4)c3c2)n1
label 1

Assay result, entry CS(=O)(=O)Nc1ccc2[nH]cc(C3CCN(CC4CCC(NC(=O)/C=C/c5ccccc5Cl)CC4)CC3)c2c1 (centres undefined) — outcome?
label 0

Hi team, can someone confirm the assay call for O=C(CCC(=O)c1ccc2c3c(cccc13)CC2)NC1CCC(CN2CCC(c3c[nH]c4ccccc34)CC2)CC1 (centres undefined) ?
label 0

Can you look up the reported call for CC[C@H]1CN2CC[C@@H]1C[C@H]2[C@H](O)c1cc(-c2ccc(Cl)c(Cl)c2)nc2ccc(O)cc12 for me?
label 1

Would you mind telling me which call this test gave CCCCCc1cc(O)c2c(c1)OC(C)(C)c1ccncc1-2 ?
label 1

// return assay outcome for COc1ccc(CCNCc2ccc3nc(N)c(C)cc3c2)cc1
label 0

Short answer needed: outcome of this test for O=C(/C=C/c1ccc(O)cc1)NC1CCC(CN2CCC(c3c[nH]c4ccccc34)CC2)CC1 (centres undefined) ?
label 1

Per the records of this test, what outcome belongs to CCCN(CC(=O)NCCc1ccccc1)c1ccc(C#N)c2ccccc12 ?
label 0

Which outcome was entered for the compound Oc1ccc(CN2CCN(CCOC(c3ccccc3)c3ccc(Cl)cc3)CC2)cc1Cl (centres undefined) in this test?
label 1

Per the records of this test, what outcome belongs to Cc1cc(O)cc2c(C3CCN(CC4CCN(C(=O)/C=C/c5ccc(Cl)c(Cl)c5)CC4)CC3)c[nH]c12 ?
label 1

Please share the test call associated with OC1(CNCc2ccccc2)CCN(CCc2c[nH]c3ccc(F)cc23)CC1 .
label 0

For this compound, state the assay outcome: CC[C@H]1CN2CC[C@@H]1C[C@H]2[C@H](O)c1cc(-c2c(C)noc2C)nc2ccc(OC)cc12
label 1

====

Catalogue of activity remaining values
tested on: Aerobactin synthetase IucA (Klebsiella pneumoniae hvKP1); experiment: Biochemical IucA enzyme inhibition primary screen of the Spectrum library (AID 1346200); settings: malachite green pyrophosphate, A620, at 8 µM, stronger effect = lower value;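 note: 100% = wells without compound and 0% = wells lacking enzyme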
Answer with a number only, understood to be in %.

Check out these entries, answers already filled in.
CC1(C)CC2C1CC[C@]1(C)CCC3C(C(=O)O)CC(=O)O[C@@]32C1 (some centres not stated) = 92.5
NCCCC(O)(P(=O)(O)O)P(=O)(O)O = 112
O=[N+]([O-])O[C@H]1CO[C@H]2[C@@H]1OC[C@H]2O[N+](=O)[O-] = 86.8

Consider the molecule COc1c2ccoc2c(OC)c2oc(=O)ccc12 and give its measured activity remaining.
121

====

test: differential killing of epithelial or mesenchymal cells, primary screen, imaging, PC-3E GFP, TEM4-18 mCherry, co-culture (AID 1345086); details: imaging cell counts, measured here: epithelial PC-3E GFP cell survival, at 1 µM;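 note: cells exposed to compound for 72 h before imaging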
measured_quantity: normalised cell number
Output spec: single numeric token, no unit.

Dear colleague, I am looking for the recorded normalised cell number of the following molecule: O=[N+]([O-])c1cc([As](=O)(O)O)ccc1O
0.89

I would be grateful if you could share the reported normalised cell number for CC(C)(C)NCC(O)c1ccccc1Cl (stereo unspecified) .
1.07

Return reported normalised cell number; argument: CC[C@@H](CO)NC(=O)[C@@H]1C=C2c3cccc4c3c(cn4C)C[C@H]2N(C)C1
0.96

Item under review: C[C@]12C=CC(=O)C=C1CCC1C2CC[C@]2(C)C(=O)CCC12 (stereo partly specified) . Reported normalised cell number?
1.06

Fill in the blank: the reported normalised cell number of C=C(C)[C@@H]1[C@H]2OC(=O)[C@@H]1[C@]1(O)C[C@H]3O[C@]34C(=O)O[C@H]2[C@]14C is ____.
0.99

====

Listing: inhibition of aggregation of selected compounds
assay: inhibitors of polyQ protein aggregation (AID 1604); settings: polyglutamine-induced protein aggregation inhibition assay; stronger effect = higher value; tested at 2.5 µM

COc1ccc(C(=O)N2CCCC2=O)cc1 = 60.5%
CCN1C[C@@]2(COC)C3[C@@H](OC)[C@H]4[C@@H]1[C@]3(C(OC)C[C@H]2O)C1C[C@@]2(O)[C@H](OC(=O)c3ccccc3)C1[C@]4(OC(C)=O)[C@@H](O)[C@@H]2OC (some centres undefined) = 65.4%
CN[C@@H](C)[C@@H](O)c1ccccc1 = 80.3%

Can you share its inhibition of aggregation? I mean this compound: c1ccc2nc(N3CCNCC3)ccc2c1
63.9%

Param item = C[N+](C)(C)CC#CCN1CCCC1=O ; retrieve measured inhibition of aggregation.
53.5%

Which inhibition of aggregation value is on record for CC(N)C(O)c1ccccc1 (centres undefined) ?
86.1%

====

assay: suppressors of polyQ aggregation in yeast, 75Q-TubU reporter (AID 1593); settings: Yeast 75Q polyglutamine aggregation reporter
Decide using score: a value greater than or equal to 1 is Y, a smaller one is N.

Please review the entries below; each comes with its answer.
C[C@@H]1C[C@@H]([C@H](O)CC2CC(=O)NC(=O)C2)C(=O)[C@@H](C)C1 = N
CN(C)C(=S)SSC(=S)N(C)C = N
CCC(C)[C@H]1O[C@]2(C=C[C@@H]1C)C[C@@H]1C[C@@H](C/C=C(\C)[C@@H](OC3C[C@H](OC)C(O[C@H]4C[C@H](OC)[C@@H](O)[C@H](C)O4)[C@H](C)O3)[C@@H](C)/C=C/C=C3\CO[C@@H]4[C@H](O)C(C)=C[C@@H](C(=O)O1)[C@]34O)O2 (some centres undefined) = Y
CC[n+]1c(-c2ccccc2)c2cc(N)ccc2c2ccc(N)cc21 = N

Dear colleague, could you confirm whether O=P1(N(CCCl)CCCl)NCCCO1 (centres undefined) has score at or above 1?
N

Hi, just wondering whether O=C(CCCN1CCC2(CC1)C(=O)NCN2c1ccccc1)c1ccc(F)cc1 shows score of 1 or higher.
Y

For this molecule, is measured score 1 or higher? CCCC(C)C1(CC)C(=O)NC(=O)NC1=O (centres undefined)
Y

Is it the case that CC(C)(C)NCC(O)c1ccccc1Cl (centres undefined) has score reaching or exceeding 1?
Y

Please tell me: is the molecule COc1ccc2c3c1O[C@H]1[C@@H](O)C=CC4[C@@H](C2)N(C)CC[C@@]341 (some centres undefined) at or over 1 in terms of score?
Y

Form field: score at least 1? Entry: N#C/C(=C\c1ccc(O)cc1)C(=O)O
Y
